reported-metric: melting point

Can you look up the measured melting point of CC1(CCCCN2CCN(c3ccc(Cl)cc3)CC2)C(=O)Nc2c(Cl)cc(Cl)cc21 (centres unmarked) for me? 168 to 170 °C

Reported melting point for CCC1(CCCCN2CCN(c3ccc(Cl)cc3)CC2)C(=O)Nc2ccc(Cl)cc21 (centres unmarked) : what is it? 186 to 188 °C

For the compound shown here, CCC1(CCCCN2CCN(c3cccc(Cl)c3)CC2)C(=O)Nc2c(Cl)cc(Cl)cc21 (centres unmarked) , give the reported melting point. 182 to 183 °C

====

# key: entry, value: melting point

compound	melting point
CCC1(CCCCN2CCN(c3ccc(Cl)cc3)CC2)C(=O)Nc2ccc(F)cc21 (centres unmarked) [Example 90]	148 to 150 °C
CCC1(CCCCN2CCN(c3ccc(F)c(Cl)c3)CC2)C(=O)Nc2ccccc21 (centres unmarked) [Example 100]	121 to 124 °C
CCC1(CCCCN2CCN(c3ccccn3)CC2)C(=O)Nc2ccc(F)cc21 (centres unmarked) [Example 84]	144 to 147 °C

The record that follows has no melting point shown yet.
Bench note: what melting point did CCC1(CCCCN2CCN(c3ccccc3Cl)CC2)C(=O)Nc2ccccc21 (centres unmarked) [Example 81] show? 145 to 148 °C

====

Counter-ions that a name gives are not always drawn.
Overview of recorded melting point for various compounds

# example entries with known answers
compound	melting point
CCC1(CCCCN2CCN(c3ccc(Cl)cc3)CC2)C(=O)Nc2cc(F)ccc21 (stereo not shown)	145 to 147 °C
CCC1(CCCCN2CCN(c3cccc(Cl)c3)CC2)C(=O)Nc2ccc(Br)cc21 (stereo not shown) (as salt: oxalate) [Example 61, monooxalate]	200 to 202 °C
CCC1(CCCN2CCN(c3cccc(Cl)c3)CC2)C(=O)Nc2ccccc21 (stereo not shown)	119 to 120 °C

Shifting focus to the compound that follows.
Item under review: CCC1(CCCCN2CCN(c3ccccn3)CC2)C(=O)Nc2ccc(Br)cc21 (stereo not shown) . Reported melting point? 114 to 115 °C

Where these numbers come from: patent US7786129B2
